Biological target: Human immunodeficiency virus type 1 integrase (Human immunodeficiency virus 1)
Sequence (Q7ZJM1 whole entry, the tested form may be a part): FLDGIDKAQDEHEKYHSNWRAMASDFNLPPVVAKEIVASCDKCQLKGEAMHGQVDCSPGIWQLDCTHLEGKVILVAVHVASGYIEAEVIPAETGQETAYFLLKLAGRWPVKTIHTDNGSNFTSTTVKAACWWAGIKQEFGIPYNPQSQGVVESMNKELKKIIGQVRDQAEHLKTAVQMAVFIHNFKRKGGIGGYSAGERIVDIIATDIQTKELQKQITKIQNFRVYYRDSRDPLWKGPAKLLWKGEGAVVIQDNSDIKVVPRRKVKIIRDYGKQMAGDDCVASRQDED
Assay: Binding affinity to recombinant HIV-1 integrase catalytic core domain expressed in Escherichia coli assessed as inhibition of interaction with […] by HTRF assay
pIC50: −log10 of the molar value.
observation_type: pIC50

[[record]]
record_smiles = "Cc1nc2ccc(Br)cc2c(-c2ccc(Cl)cc2)c1[C@H](OC(C)(C)C)C(=O)O"
observation_type = "pIC50"
value_measured = 7.22

[[record]]
record_smiles = "Cc1nc2ccccc2c(-c2cc(F)c3c(c2C)CCCO3)c1[C@H](OC(C)(C)C)C(=O)O"
observation_type = "pIC50"
value_measured = 7.74

